Items are presented alongside their recorded pIC50 (REN).
- TARGET OR TEST SYSTEM: RORγ (UniProt P51449)
- Construct: hRORg-LBD|aa259-518|NP_005051.2; hRORgt|aa1-497|NP_001001523 (RORg, t isoform, 497aa); mRORg-LBD|aa264-516|NP_035411
- Type: cell-based
- PROTOCOL CONDITIONS: renilla normalised (RENnorm) luciferase, 293T cells, 16 h

# COMPOUND, TARGET OR TEST SYSTEM, pIC50 (REN)
records = [
    ("Cc1c(C(=O)N[C@H]2C[C@H](C(=O)O)C2)cn(-c2cc(C(C)(C)C)cc(C3(C)CC3)c2)c1C(=O)C1CCCCC1 [Example 6]", "RORγ (UniProt P51449)", 8.0),
    ("CC(C)(C)c1cc(-n2nc(C(=O)N[C@H]3C[C@H](C(=O)O)C3)c(Cl)c2OC2CCCCC2)cc(C2(C)CC2)c1 [Example 111]", "RORγ (UniProt P51449)", 7.5),
    ("Cc1c(C(=O)NC2CCOCC2)cn(-c2ccc(S(=O)(=O)NC(C)(C)C)c(C(F)(F)F)c2)c1CC1CCCCC1 [4/3]", "RORγ (UniProt P51449)", 7.6),
    ("Cc1c(C(=O)N[C@H]2C[C@H](C(=O)O)C2)cn(-c2cc(C(C)(C)C)cc(C3(C)CC3)c2)c1CC1CCCCC1 [1/5]", "RORγ (UniProt P51449)", 8.0),
]
